Measured values drawn from patent US12070472B2 for this set.

# Test system: A549 non-small cell lung cancer cell line
# experimental.protocol: CellTitreGlo survival, 7 days, A549
# Assay type: cell-based
# applied.conditions: Homo sapiens, 168 h
experimental.endpoint: IC50 (nM)
Give the value, in units of nM, as a plain number.

Prompt line: I would be grateful if you could share the reported IC50 for Nc1nc2c(ncn2[C@H]2C[C@H](O)[C@@H](CO)O2)c(=S)[nH]1 .
Response line: 2400

---

# System: H2085
# experimental.protocol: NSCLC panel sensitivity to 6-thio-dG, H2085
# Type: cell-based
# applied.conditions: Homo sapiens
experimental.endpoint: IC50

Prompt line: For the compound Nc1nc2c(ncn2[C@H]2C[C@H](O)[C@@H](CO)O2)c(=S)[nH]1 [6-thio-dG, 6-thio-2′-deoxyguanosine] , what IC50 is on record?
Response line: 3 to 7 µM

---

# Test system: BJ normal fibroblast cell line
# experimental.protocol: CellTitreGlo survival, 7 days, BJ
# Format: cell-based
# applied.conditions: Homo sapiens, 168 h
experimental.endpoint: IC50

Prompt line: Query (molecule): Nc1nc2c(ncn2[C@H]2C[C@H](O)[C@@H](CO)O2)c(=S)[nH]1 ; field requested: IC50
Response line: > 100 µM
